Entry source: ChEMBL document CHEMBL1137078

Target: Interstitial collagenase (Homo sapiens)
Test: In vitro inhibitory activity against recombinant matrix metalloprotease-1 was determined
METRIC NAME: pIC50
// pIC50: -log10(molar conc.)

For the compound CC(C)NC(=O)P(=O)(O)O , what pIC50 is on record? 4.30

New cases:
For the compound CCCCN(CCCC)C(=O)P(=O)(O)O , what pIC50 is on record? 4.15

For the compound CCCNC(=O)P(=O)(O)O , what pIC50 is on record? 4.70

For the compound O=C(NC1CCCC1)P(=O)(O)O , what pIC50 is on record? 6.30

* * *

Item-by-item account of IC50
Target: Stromelysin-1 (Homo sapiens)
Sequence (P08254 whole entry): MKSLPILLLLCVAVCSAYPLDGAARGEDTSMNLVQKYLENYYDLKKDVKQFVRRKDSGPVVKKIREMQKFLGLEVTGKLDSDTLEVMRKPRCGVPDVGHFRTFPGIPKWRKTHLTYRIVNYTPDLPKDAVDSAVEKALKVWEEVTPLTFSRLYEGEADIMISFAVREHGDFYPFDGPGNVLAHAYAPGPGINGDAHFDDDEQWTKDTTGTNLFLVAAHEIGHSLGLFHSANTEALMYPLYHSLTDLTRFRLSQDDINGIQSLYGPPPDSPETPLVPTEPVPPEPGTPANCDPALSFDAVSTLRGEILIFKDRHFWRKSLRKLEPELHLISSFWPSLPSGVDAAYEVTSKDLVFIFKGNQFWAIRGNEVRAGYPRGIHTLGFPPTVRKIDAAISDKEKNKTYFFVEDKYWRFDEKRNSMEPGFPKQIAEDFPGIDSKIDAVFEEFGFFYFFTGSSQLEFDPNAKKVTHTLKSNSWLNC
Experiment: In vitro inhibitory activity against recombinant matrix metalloprotease-3 was determined

Here are 5 molecules together with their reported answers.
For the molecule O=C(NC1CC1)P(=O)(O)O , what IC50 is on record? > 100 µM

For the molecule O=C(NC1CCCCCC1)P(=O)(O)O , what IC50 is on record? > 100 µM

For the molecule CC(C)CNC(=O)P(=O)(O)O.NC1CCCCC1 , what IC50 is on record? > 100 µM

For the molecule CC(C)NC(=O)P(=O)(O)O , what IC50 is on record? > 100 µM

For the molecule O=C(NC1CCCC1)P(=O)(O)O , what IC50 is on record? > 100 µM

New cases:
For the molecule CCCCNC(=O)P(=O)(O)O , what IC50 is on record? > 100 µM

* * *

Item-by-item account of pIC50
Target: Interstitial collagenase (Homo sapiens, UniProt P03956)
Sequence (P03956 whole entry): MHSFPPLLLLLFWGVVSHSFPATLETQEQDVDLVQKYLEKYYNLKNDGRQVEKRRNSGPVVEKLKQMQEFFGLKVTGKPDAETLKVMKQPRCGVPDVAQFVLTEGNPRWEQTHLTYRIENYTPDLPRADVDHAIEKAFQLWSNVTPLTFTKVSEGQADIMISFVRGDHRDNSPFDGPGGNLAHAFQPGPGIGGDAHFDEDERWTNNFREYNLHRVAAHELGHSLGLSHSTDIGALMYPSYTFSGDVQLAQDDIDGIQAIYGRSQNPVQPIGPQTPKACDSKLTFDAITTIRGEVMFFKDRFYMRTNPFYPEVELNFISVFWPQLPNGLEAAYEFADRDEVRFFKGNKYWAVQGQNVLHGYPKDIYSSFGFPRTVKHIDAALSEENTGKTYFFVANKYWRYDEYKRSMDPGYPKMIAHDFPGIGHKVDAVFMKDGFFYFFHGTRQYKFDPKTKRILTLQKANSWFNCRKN
Assay: In vitro inhibitory activity against recombinant matrix metalloprotease-1 was determined
pIC50: −log10 of the molar value.

For the compound O=C(NC1CC1)P(=O)(O)O , what pIC50 is on record? < 4.00

New cases:
For the compound O=C(NC1CCCCCC1)P(=O)(O)O , what pIC50 is on record? < 4.00

For the compound O=C(NC1CCCCCCC1)P(=O)(O)O , what pIC50 is on record? < 4.00

* * *

Molecular target: Matrix metalloproteinase-9 (Homo sapiens, UniProt P14780)
Sequence (P14780 whole entry): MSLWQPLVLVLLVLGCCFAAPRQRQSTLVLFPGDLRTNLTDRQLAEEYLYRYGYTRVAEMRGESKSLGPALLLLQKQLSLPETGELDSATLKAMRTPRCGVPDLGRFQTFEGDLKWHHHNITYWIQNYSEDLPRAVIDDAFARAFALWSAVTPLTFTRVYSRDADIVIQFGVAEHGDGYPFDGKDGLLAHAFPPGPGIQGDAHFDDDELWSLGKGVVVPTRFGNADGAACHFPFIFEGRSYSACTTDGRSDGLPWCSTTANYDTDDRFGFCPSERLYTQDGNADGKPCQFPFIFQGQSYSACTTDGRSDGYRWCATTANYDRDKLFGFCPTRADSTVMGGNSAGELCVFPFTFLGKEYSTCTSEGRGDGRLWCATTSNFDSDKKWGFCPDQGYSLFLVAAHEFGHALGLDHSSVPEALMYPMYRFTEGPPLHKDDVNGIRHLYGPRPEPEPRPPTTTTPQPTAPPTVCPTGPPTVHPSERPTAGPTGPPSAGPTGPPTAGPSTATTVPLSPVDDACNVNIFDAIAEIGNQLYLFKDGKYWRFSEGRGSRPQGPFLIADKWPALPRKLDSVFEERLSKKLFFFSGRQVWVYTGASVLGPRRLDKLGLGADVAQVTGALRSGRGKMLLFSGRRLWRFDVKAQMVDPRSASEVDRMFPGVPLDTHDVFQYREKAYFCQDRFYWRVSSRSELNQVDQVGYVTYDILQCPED
Test: In vitro inhibitory activity against recombinant matrix metalloprotease-9 was determined
pIC50: −log10 of the molar value.
METRIC NAME: pIC50

Item: CCNC(=O)P(=O)(O)O [(ETHYLAMINO)CARBONYLPHOSPHONIC ACID] Test system: Matrix metalloproteinase-9 (Homo sapiens, UniProt P14780) Read-out: pIC50 Value: ? 5.52

Item: O=C(N1CCCCC1)P(=O)(O)O Test system: Matrix metalloproteinase-9 (Homo sapiens, UniProt P14780) Read-out: pIC50 Value: ? 6.30

Item: O=C(NC1CCCCCCC1)P(=O)(O)O Test system: Matrix metalloproteinase-9 (Homo sapiens, UniProt P14780) Read-out: pIC50 Value: ? < 4.00

Item: O=C(NC1CCCCC1)P(=O)(O)O Test system: Matrix metalloproteinase-9 (Homo sapiens, UniProt P14780) Read-out: pIC50 Value: ? < 4.00

Item: CC(C)CCNC(=O)P(=O)(O)O.NC1CCCCC1 Test system: Matrix metalloproteinase-9 (Homo sapiens, UniProt P14780) Read-out: pIC50 Value: ? < 4.00

Item: CCOP(=O)(O)C(=O)NC1CCCCC1 Test system: Matrix metalloproteinase-9 (Homo sapiens, UniProt P14780) Read-out: pIC50 Value: ? < 4.00

Item: CNC(=O)P(=O)(O)O Test system: Matrix metalloproteinase-9 (Homo sapiens, UniProt P14780) Read-out: pIC50 Value: ? < 4.00

Item: CC(C)CNC(=O)P(=O)(O)O.NC1CCCCC1 Test system: Matrix metalloproteinase-9 (Homo sapiens, UniProt P14780) Read-out: pIC50 Value: ? < 4.00

Item: O=C(NCCc1ccccc1)P(=O)(O)O Test system: Matrix metalloproteinase-9 (Homo sapiens, UniProt P14780) Read-out: pIC50 Value: ? < 4.00

Item: O=C(NC1CCCCCC1)P(=O)(O)O Test system: Matrix metalloproteinase-9 (Homo sapiens, UniProt P14780) Read-out: pIC50 Value: ? < 4.00

New cases:
Item: O=C(NC1CCC1)P(=O)(O)O Test system: Matrix metalloproteinase-9 (Homo sapiens, UniProt P14780) Read-out: pIC50 Value: ? < 4.00

Item: CCCCN(CCCC)C(=O)P(=O)(O)O Test system: Matrix metalloproteinase-9 (Homo sapiens, UniProt P14780) Read-out: pIC50 Value: ? < 4.00

Item: O=C(NC1CCCC1)P(=O)(O)O Test system: Matrix metalloproteinase-9 (Homo sapiens, UniProt P14780) Read-out: pIC50 Value: ? < 4.00
